Measured human Plasma stability accompanies every entry in the list below.
test: Plasma Stability; format: in vitro ADME, human; details: % remaining @ 1 h
Answer in % @ 1 h, number only, no unit symbol.

Worked examples follow.
Item CC(C)OCCn1c(=S)n(COC(=O)[C@@H](N)C(C)C)c(=O)c2c1ccn2COC(=O)[C@@H](N)C(C)C.O=C(O)C(F)(F)F.O=C(O)C(F)(F)F [Example 297] has what recorded human Plasma stability?
6

Item CC(C)OCCn1c(SCOC(=O)[C@@H](Cc2ccccc2)NC(=O)OC(C)(C)C)nc(=O)c2c1ccn2COC(=O)[C@@H](Cc1ccccc1)NC(=O)OC(C)(C)C [Example 306] has what recorded human Plasma stability?
72

Item CC(C)OCCn1c(=S)[nH]c(=O)c2c1ccn2COC(=O)[C@@H](Cc1ccccc1)NC(=O)OC(C)(C)C [Example 305] has what recorded human Plasma stability?
39

Item CC(C)OCCn1c(SCOC(=O)[C@@H](N)Cc2ccccc2)nc(=O)c2[nH]ccc21.O=C(O)C(F)(F)F [Example 310] has what recorded human Plasma stability?
4

Item CC(C)OCCn1c(=S)n(COC(=O)[C@@H](Cc2ccccc2)NC(=O)OC(C)(C)C)c(=O)c2c1ccn2COC(=O)[C@@H](Cc1ccccc1)NC(=O)OC(C)(C)C [Example 307] has what recorded human Plasma stability?
99

From here, focus on the item given below.
Item CC(C)OCCn1c(SCOC(=O)[C@@H](N)Cc2ccccc2)nc(=O)c2c1ccn2COC(=O)[C@@H](N)Cc1ccccc1.O=C(O)C(F)(F)F.O=C(O)C(F)(F)F [Example 309] has what recorded human Plasma stability?
5
